# ASSAY_INFO: Tanguay_ZF_120hpf_PIG_legacy: (Legacy) Oregon State University Tanguay Lab 120 Hour Post-fertilization zebrafish Assay for Pigmentation Malformation (AID 2283650);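 note: dechorionated Tropical 5D zebrafish embryos exposed singly from 6 to 120 hpf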
Results filed as inconclusive are left out. Activity calls are given as the source filed them. Rule for the calls: active = hit-call score of the fitted dose curve at least 0.9, where 1 is the maximum; inconclusive = response in the unintended direction; inactive = score below 0.9.
MEASURED_PROPERTY: outcome

# annotated cases, reported outcome shown
                              input_smiles  measurement
0            ClC1=C(Cl)C(Cl)(Cl)C(Cl)=C1Cl     inactive
1        O=c1c(-c2ccc(O)cc2)coc2cc(O)ccc12     inactive
2  CC(C)(C)c1cc(C(C)(C)C)c(O)c(C(C)(C)C)c1     inactive
3                       COC(=O)CCCCC(=O)OC     inactive

response.value for CC(C)(C)c1ccc(O)c(C(C)(C)C)c1 (field: outcome) = inactive

response.value for CC(=O)CC(C)(C)O (field: outcome) = inactive

The measurements presented in this section are drawn from PubChem BioAssay (EPA / NIEHS).
